test system: NCI-H460 lung; test: NCI tumour cell line growth inhibition, 48 h
measurement.label: TGI

Form: item CC(=O)Nc1ccc2c3c(cc(O)c2c1)N(C(=O)CCCC(=O)N1CC(CCl)c2c1cc(O)c1cc(NC(C)=O)ccc21)CC3CCl (stereo not given) ; test system NCI-H460 lung; TGI: > 100 µM

====

Each entry below carries its reported GI50.
system: MCF7 breast; test: NCI tumour cell line growth inhibition, 48 h

So for CNC(=O)c1c(C)oc2cc(Oc3ncnc4cc(OC)c(OC)cc34)ccc12 , the logged GI50 turned out to be > 100000 nM

So for Cc1cc2c(C(=O)NC[C@H](C)c3ccccc3)c(O)c(O)cc2c(O)c1-c1c(C)cc2c(C(=O)NC[C@H](C)c3ccccc3)c(O)c(O)cc2c1O , the logged GI50 turned out to be 68.5 nM

So for NS(=O)(=O)OC[C@H]1C[C@@H](Nc2ccnc3cc(-c4cccc(SC(F)(F)F)c4)nn23)[C@H](O)[C@@H]1O , the logged GI50 turned out to be 21.4 nM

So for O=C(CSc1nc2c(n1Nc1ccccc1)-c1ccccc1SC2)Nc1nc(-c2ccc(Cl)cc2)cs1 , the logged GI50 turned out to be > 100000 nM

So for COc1ccc(C2(Cl)c3ccccc3N(c3ccccc3)c3ccccc32)cc1 , the logged GI50 turned out to be 182 nM

So for O=c1oc2ccc(I)cc2c(=O)n1-c1ccc(Br)cc1F , the logged GI50 turned out to be 1340 nM

====

Each entry below carries its reported TGI.
tested on: UACC-257 melanoma; experiment: NCI tumour cell line growth inhibition, 48 h
Reply with just the number (in µM).

So for CCc1ccc(Oc2c(-c3ccc(OCc4ccc(Cl)cc4)cc3O)n[nH]c2C(F)(F)F)cc1 , the logged TGI turned out to be 3.8

So for COc1c/c(=C2\C=c3ccccc3=N2)[nH]/c1=C\c1[nH]c(C)cc1C , the logged TGI turned out to be 32.7

So for COc1ccc2c3c1OC1C(F)C=CC4(O)C(C2)NCCC314 (stereo not given) , the logged TGI turned out to be 24.1

So for CC(C)C[C@H](NC(=O)CNC(=O)c1cc(Cl)ccc1Cl)B(O)O , the logged TGI turned out to be 0.0492

====

test system: NCI-H522 lung; experiment: NCI tumour cell line growth inhibition, 48 h
Give label 1 when the value for TGI is at least 9 µM. Give label 0 when it is less.

Below are worked cases with known answers.
[[record]]
molecule = "CC1=N/C(=C/c2ccc3c(c2)OCO3)C(=O)O1"
system_under_test = "NCI-H522 lung"
discrete_label = "label 1"

[[record]]
molecule = "CC1CC(N)=C(C#N)C1(C#N)C#N (stereo not given)"
system_under_test = "NCI-H522 lung"
discrete_label = "label 1"

[[record]]
molecule = "Cc1c(-c2cnccn2)ssc1=S"
system_under_test = "NCI-H522 lung"
discrete_label = "label 1"

[[record]]
molecule = "COc1cc(/C=C2\\CC3C4CC=C5C[C@@H](OC(C)=O)CC[C@]5(C)C4CC[C@]3(C)C2=O)ccc1OCCN1CCCCC1 (stereo not given in full)"
system_under_test = "NCI-H522 lung"
discrete_label = "label 1"

[[record]]
molecule = "COc1ccc2c3c1OC1C(F)C=CC4(O)C(C2)NCCC314 (stereo not given)"
system_under_test = "NCI-H522 lung"
discrete_label = "label 0"


// query Could you tell me if the measured TGI of CC(C)(O)C(O)COc1c2c(cc3oc(=O)ccc13)OCO2 (stereo not given) reaches 9 µM or more?
// result label 1

// query Could you tell me if the measured TGI of CC1(C)OC2C(COC(c3ccccc3)(c3ccccc3)c3ccccc3)OC(c3c[nH]c4c(N)ncnc34)C2O1 (stereo not given) reaches 9 µM or more?
// result label 1

// query Could you tell me if the measured TGI of CCc1ccc(Oc2c(-c3ccc(OCc4ccc(Cl)cc4)cc3O)n[nH]c2C(F)(F)F)cc1 reaches 9 µM or more?
// result label 0
